Data provenance is PubChem BioAssay AID2060626.

Consider the following compounds; for each one, report its viability, T/C.
- Tested on: 168753-222-R-J1-PDC complex spheroid viability;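 note: luminescence signal used as surrogate for viable cell amount; viability measured after seven days of drug exposure; 100% = DMSO vehicle control wells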
- TEST: Anticancer human tumor 168753-222-R-J1-PDC patient-derived bladder carcinoma cell line growth inhibition [CLK]
- EXPERIMENTAL_PARAMETERS: second compound 10 µM; first compound 3.16 µM; active compounds read low
Your answer is read as %, so omit the unit and give the number.

Enquiry: Fill in the blank: the reported viability, T/C of O=C(c1cc(Cc2n[nH]c(=O)c3ccccc23)ccc1F)N1CCN(C(=O)C2CC2)CC1 + CN1CCN(c2cc(C(=O)Nc3cc4cc(-c5cnn(C)c5)ccc4cn3)ccn2)CC1 is ____.
Return: 0.41

Enquiry: Fill in the blank: the reported viability, T/C of O=c1[nH]cc(F)c(=O)[nH]1 + CNC(=O)c1ccc(Nc2nc(OC3CCCC3)c3c(-c4ccc5nc(C)oc5c4)c[nH]c3n2)c(OC)c1 is ____.
Return: 18.6

Enquiry: Fill in the blank: the reported viability, T/C of CC(CO)NC(=O)c1cc(-c2ccc(Cl)cc2)nn(-c2cnn(C)c2)c1=O (stereo unspecified) + CN1CCN(c2cc(C(=O)Nc3cc4cc(-c5cnn(C)c5)ccc4cn3)ccn2)CC1 is ____.
Return: 1.02

Enquiry: Fill in the blank: the reported viability, T/C of CC(=O)O[C@H]1C(=O)[C@@]2(C)[C@H]([C@H](OC(=O)c3ccccc3)[C@]3(O)C[C@H](OC(=O)[C@H](O)[C@@H](NC(=O)c4ccccc4)c4ccccc4)C(C)=C1C3(C)C)[C@]1(OC(C)=O)CO[C@@H]1C[C@@H]2O + CNC(=O)c1ccc(Nc2nc(OC3CCCC3)c3c(-c4ccc5nc(C)oc5c4)c[nH]c3n2)c(OC)c1 is ____.
Return: 35.4

Enquiry: Fill in the blank: the reported viability, T/C of Nc1ccn(C2OC(CO)C(O)C2(F)F)c(=O)n1 (stereo unspecified) + CNC(=O)c1ccc(Nc2nc(OC3CCCC3)c3c(-c4ccc5nc(C)oc5c4)c[nH]c3n2)c(OC)c1 is ____.
Return: 17.1

Enquiry: Fill in the blank: the reported viability, T/C of COC1C=CCC(C)C(C)S(=O)(=O)NC(=O)c2ccc3c(c2)N(CC2CCC21)CC1(CCCc2cc(Cl)ccc21)CO3 (stereo unspecified) + CN1CCN(c2cc(C(=O)Nc3cc4cc(-c5cnn(C)c5)ccc4cn3)ccn2)CC1 is ____.
Return: 0.23

Enquiry: Fill in the blank: the reported viability, T/C of CC(Nc1ccc2c(c1)OCCn1cc(N3C(=O)OCC3C(F)F)nc1-2)C(N)=O (stereo unspecified) + CN1CCN(c2cc(C(=O)Nc3cc4cc(-c5cnn(C)c5)ccc4cn3)ccn2)CC1 is ____.
Return: 0.27

Enquiry: Fill in the blank: the reported viability, T/C of COc1cccc2c1C(=O)c1c(O)c3c(c(O)c1C2=O)CC(O)(C(=O)CO)CC3OC1CC(N)C(O)C(C)O1 (stereo unspecified) + CNC(=O)c1ccc(Nc2nc(OC3CCCC3)c3c(-c4ccc5nc(C)oc5c4)c[nH]c3n2)c(OC)c1 is ____.
Return: 0.71

Enquiry: Fill in the blank: the reported viability, T/C of O=C(c1cc(Cc2n[nH]c(=O)c3ccccc23)ccc1F)N1CCN(C(=O)C2CC2)CC1 + CNC(=O)c1ccc(Nc2nc(OC3CCCC3)c3c(-c4ccc5nc(C)oc5c4)c[nH]c3n2)c(OC)c1 is ____.
Return: 18.1

Enquiry: Fill in the blank: the reported viability, T/C of CC(Nc1ccc2c(c1)OCCn1cc(N3C(=O)OCC3C(F)F)nc1-2)C(N)=O (stereo unspecified) + CNC(=O)c1ccc(Nc2nc(OC3CCCC3)c3c(-c4ccc5nc(C)oc5c4)c[nH]c3n2)c(OC)c1 is ____.
Return: 0.78

Enquiry: Fill in the blank: the reported viability, T/C of C=C(F)C(=O)N1CCN(c2nc(OCC3CCCN3C)nc3c2CCN(c2cccc4cccc(Cl)c24)C3)CC1CC#N (stereo unspecified) + CNC(=O)c1ccc(Nc2nc(OC3CCCC3)c3c(-c4ccc5nc(C)oc5c4)c[nH]c3n2)c(OC)c1 is ____.
Return: 17.5
